Molecular target: human ether-à-go-go-related gene (hERG) potassium channel (human, UniProt Q12809);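 also: peak tail current of the secondary pulse compared with the same well before compound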
Sequence (Q12809 whole entry, looked up): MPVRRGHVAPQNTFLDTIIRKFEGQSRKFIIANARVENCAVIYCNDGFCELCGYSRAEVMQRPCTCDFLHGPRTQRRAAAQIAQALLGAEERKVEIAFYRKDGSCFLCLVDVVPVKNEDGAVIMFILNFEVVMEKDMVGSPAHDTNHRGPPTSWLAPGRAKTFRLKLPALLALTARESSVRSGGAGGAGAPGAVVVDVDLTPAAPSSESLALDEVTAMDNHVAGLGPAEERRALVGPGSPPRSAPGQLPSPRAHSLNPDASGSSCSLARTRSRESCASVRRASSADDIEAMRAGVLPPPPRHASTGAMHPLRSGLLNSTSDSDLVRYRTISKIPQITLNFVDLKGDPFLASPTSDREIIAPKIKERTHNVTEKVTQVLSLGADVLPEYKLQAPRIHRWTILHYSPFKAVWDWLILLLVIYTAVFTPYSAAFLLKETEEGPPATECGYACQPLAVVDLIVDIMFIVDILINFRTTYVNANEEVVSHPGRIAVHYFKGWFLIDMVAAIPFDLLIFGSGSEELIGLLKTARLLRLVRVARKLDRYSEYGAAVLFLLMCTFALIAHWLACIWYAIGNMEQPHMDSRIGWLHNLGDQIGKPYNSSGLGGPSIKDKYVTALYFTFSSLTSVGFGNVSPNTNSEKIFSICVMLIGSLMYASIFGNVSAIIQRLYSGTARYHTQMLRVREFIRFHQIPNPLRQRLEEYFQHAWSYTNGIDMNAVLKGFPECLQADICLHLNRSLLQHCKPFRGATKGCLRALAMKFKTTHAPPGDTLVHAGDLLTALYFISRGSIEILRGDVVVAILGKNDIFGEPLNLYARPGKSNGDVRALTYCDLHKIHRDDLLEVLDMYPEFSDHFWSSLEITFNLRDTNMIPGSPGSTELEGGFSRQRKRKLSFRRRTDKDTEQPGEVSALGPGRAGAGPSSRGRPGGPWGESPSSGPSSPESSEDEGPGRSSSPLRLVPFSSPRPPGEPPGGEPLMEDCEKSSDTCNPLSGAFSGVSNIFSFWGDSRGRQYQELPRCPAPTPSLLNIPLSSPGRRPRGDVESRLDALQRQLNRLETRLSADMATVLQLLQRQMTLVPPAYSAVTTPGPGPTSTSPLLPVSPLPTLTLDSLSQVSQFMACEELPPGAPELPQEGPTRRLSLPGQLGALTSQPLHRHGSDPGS
Test: primary screen, population patch clamp on CHO cells stably expressing hERG; higher = less effect of the substance
Among all 310,000 compounds or so, about 14,000 (4.5%) showed an effect of 50% or more. Effects have a minus sign here. The entries come from a sample that favours strong results as a whole.
observationType: hERG current change (%, negative = inhibition) at 10uM (%)

molecule | readoutNumber
CC1=C(C)CC(C(=O)Nc2nccs2)C(C(=O)O)C1 (stereo not drawn) | 28.7
COc1ccc(/C=C(/NC(=O)/C=C/c2ccccc2)C(=O)O)cc1 | 24.9
CC(OC(=O)c1nc(-c2ccccc2)n(-c2ccccc2)n1)C(=O)Nc1cc(Cl)cc(Cl)c1 (stereo not drawn) | -6.35
C=CCO/N=C/C1C(=O)CC(C)(C)CC1=O | 10.9
O=C(N/C(=C\c1ccccc1)C(=O)N1CCOCC1)c1ccccc1Cl | 0.479
COCCCNC(=O)c1ccccc1Sc1ccc(NC(C)=O)nc1 | 25.8
CCOC(=O)NC(=O)COC(=O)c1ccc(O)cc1 | -6.29
COc1ccc(/C=C(/NC(=O)/C=C/c2ccccc2)C(=O)N2CCOCC2)cc1 | -71.2
O=C(O)c1ccc(N/N=C/c2ccc(OC(=O)c3cccc(Cl)c3)cc2)cc1 | -9.22
C/C(=N/NS(=O)(=O)c1ccc(C)cc1C)c1ccc2c(c1)OCO2 | -2.58
O=C(/C=C/c1ccccc1)N/C(=C/c1ccccc1)C(=O)N1CCOCC1 | -58.8
CC(=O)N/C(=C\c1ccccc1)C(=O)N1CCOCC1 | 20.1
O=C(Oc1ccc(/C=N/Nc2ccccc2)cc1)c1ccccc1 | 15.4
COc1ccc(C(=O)N/C(=C\c2ccccc2)C(=O)N2CCOCC2)cc1 | -8.27
O=C(N/C(=C/c1ccccc1)C(=O)N1CCCCCC1)c1ccccc1 | -12.4
COc1cc(C(=O)Nc2ncccc2C)ccc1OCC(=O)N1CCOCC1 | -4.78
O=C(CC12CC3CC(CC(C3)C1)C2)N1CCOCC1 | -1.47
Cn1cccc1Cc1nnc(SCC(=O)NCC2CCCO2)n1CCc1ccccc1 (stereo not drawn) | -10.8
O=C(C(NS(=O)(=O)c1cccc2nsnc12)c1ccccc1)N1CCN(c2ccccn2)CC1 (stereo not drawn) | -64.8
COc1ccccc1NC(=O)N1CCC(c2nc3ccccc3o2)CC1 | -6.16
COc1ccc(O)c(CN2CCC(n3nccc3NC(=O)CCOc3ccccc3)CC2)c1 | -60.4
